Taken from patent US11672785B2.

- Tested on: estrogen-responsive reporter gene, ERE-tk109-Luc
- Test Name: Inhibition of E2-induced transcription, ERE-tk109-Luc reporter in transfected MCF-7 cells
- Assay type: cell-based
- Conditions Used: Homo sapiens, MCF7; mean of n; read-out: Inhibition of E2-stimulated transcription in breast cells pIC50 (converted)
- Procedure: Representative compounds were tested for their inhibitory activity of estrogen according to the assay methods described in Hodges-Gallagher, L., Valentine, C. […] Specifically, MCF-7 cells were transiently transfected with an estrogen-responsive reporter gene, ERE-tk109-Luc. […] Luciferase activity was normalized to activity of E2 alone and IC50's were calculated using the least squares fit method.
Param label: returns TRUE when IC50 < 8 nM, returns FALSE otherwise, including exact equality.

Req: Would you kindly verify if IC50 of C[C@]12CC[C@@H]3c4ccc(O)cc4C[C@@H](CCCCCCCCC[S+]([O-])CCCC(F)(F)C(F)(F)F)[C@H]3[C@@H]1CC[C@@H]2O (stereo partly drawn) [Fulvestrant, reference compound] is strictly less than 8 nM?
Resp: TRUE

***
Req: Would you kindly verify if IC50 of CCCN1CC(Oc2ccc([C@@H]3c4[nH]c5ccccc5c4C[C@@H](C)N3CC(C)(C)F)cc2)C1 is strictly less than 8 nM?
Resp: TRUE

Req: Would you kindly verify if IC50 of C[C@@H]1Cc2c([nH]c3ccccc23)[C@@H](c2c(F)cc(OCCN3CC(CF)C3)cc2F)N1CC(C)(C)F is strictly less than 8 nM?
Resp: FALSE

Req: Would you kindly verify if IC50 of C[C@@H]1Cc2c([nH]c3ccccc23)[C@@H](c2c(F)cc(/C=C/C(=O)O)cc2F)N1CC(C)(C)F [AZD9496, reference compound] is strictly less than 8 nM?
Resp: TRUE

Req: Would you kindly verify if IC50 of CCCN1CC(Oc2cc(F)c([C@@H]3c4[nH]c5ccccc5c4C[C@@H](C)N3CC(C)(C)F)c(F)c2)C1 [Goodacre Compound 107, reference compound] is strictly less than 8 nM?
Resp: TRUE
